# Tested on: Leishmania donovani
# test.summary: Antileishmanial activity against promastigotes of Leishmania donovani by alamar blue assay
# Type: functional, organism-based
# experimental.conditions: Leishmania donovani; read-out: IC50
measured.endpoint: IC50 (µg/mL)
Could you give me the number in µg/mL? Just the number is fine.

CCCCCOc1c(OC)cc(NC(C)CCCNC(=S)NCCCC(C)Nc2cc(OC)c(OCCCCC)c3c(CC)ccnc23)c2nccc(CC)c12.Cl.Cl (centres undefined)	40

Quick check: IC50 of CCCCCOc1c(OC)cc(NC(C)CCCNC(=O)NCCCC(C)Nc2cc(OC)c(OCCCCC)c3c(CC)ccnc23)c2nccc(CC)c12.Cl.Cl (centres undefined) ?
3.5

Quick check: IC50 of COc1cc(NC(C)CCCNC(=O)N[C@@H](CCCN)C(=O)NCCCC(C)Nc2cc(OC)cc3ccc(C(C)(C)C)nc23)c2nc(C(C)(C)C)ccc2c1.Cl (some centres undefined) ?
18

Please look up its IC50: COc1cc(NC(C)CCCNC(=O)NC(CCCCN)C(=O)NCCCC(C)Nc2cc(OC)cc3cccnc23)c2ncccc2c1.Cl (single isomer, unassigned)
18

----------
# Tested on: Cryptococcus neoformans
# test.summary: Antifungal activity against Cryptococcus neoformans ATCC 90113
# Type: functional, organism-based
Entries and their measured MFC follow.
Express your answer in mg/L, writing the number without its unit.

Below, each entry is followed by its recorded MFC result.
COc1cc(NC(C)CCCNC(=O)CC[C@H](N)C(=O)NCCCC(C)Nc2cc(OC)cc3cccnc23)c2ncccc2c1.Cl (some centres not stated)	20
COc1cc(NC(C)CCCNCCNCCNCCCC(C)Nc2cc(OC)cc3cccnc23)c2ncccc2c1.Cl.Cl (configuration not stated)	20
COc1cc(NC(C)CCCNC(=O)N[C@H](CCCN)C(=O)NCCCC(C)Nc2cc(OC)cc3ccc(C(C)(C)C)nc23)c2nc(C(C)(C)C)ccc2c1.Cl (some centres not stated)	20

Any idea what MFC was measured for COc1cc(NC(C)CCCNC(=O)NC(CCCN)C(=O)NCCCC(C)Nc2cc(OC)cc3cccnc23)c2ncccc2c1.Cl (single isomer, unassigned; 37) ?
20

What measured MFC goes with COc1cc(NC(C)CCCNC(=O)N[C@H](CCCCN)C(=O)NCCCC(C)Nc2cc(OC)cc3cccnc23)c2ncccc2c1.Cl (some centres not stated) ?
20

Quick one: MFC of COc1cc(NC(C)CCCNCOC(=O)NCCCC(C)Nc2cc(OC)cc3cccnc23)c2ncccc2c1.Cl.Cl (configuration not stated) ?
5

Could you tell me which MFC is on file for COc1cc(NC(C)CCCNC(=O)NC(CCCCN)C(=O)NCCCC(C)Nc2cc(OC)cc3ccc(C(C)(C)C)nc23)c2nc(C(C)(C)C)ccc2c1.Cl (single isomer, unassigned) ?
10

----------
# System: Plasmodium falciparum
# test.summary: Antimalarial activity against chloroquine-sensitive Plasmodium falciparum D6 by LDH assay
# Type: functional, organism-based
# experimental.conditions: Plasmodium falciparum, D6; read-out: IC50
measured.endpoint: IC50 (µg/mL)
# value in µg/mL; strip the unit string

Examples with their reported IC50 follow.
COc1cc(NC(C)CCCNCC(=O)NCCCC(C)Nc2cc(OC)cc3ccc(C(C)(C)C)nc23)c2nc(C(C)(C)C)ccc2c1.Cl.Cl (centres undefined)	1.5
COc1cc(NC(C)CCCNC(=O)C[C@@H](N)C(=O)NCCCC(C)Nc2cc(OC)cc3cccnc23)c2ncccc2c1.Cl (some centres undefined)	3.3
COc1cc(NC(C)CCCNC(=O)NC(CCCCN)C(=O)NCCCC(C)Nc2cc(OC)cc3cccnc23)c2ncccc2c1.Cl (single isomer, unassigned)	2.7

I'd like to know its IC50. The compound in question is COc1cc(NC(C)CCCNC(=O)c2ccncc2C(=O)NCCCC(C)Nc2cc(OC)cc3cccnc23)c2ncccc2c1.Cl (centres undefined)
3

# query: IC50 of entry COc1cc(NC(C)CCCNC(=O)N[C@@H](CCCN)C(=O)NCCCC(C)Nc2cc(OC)cc3ccc(C(C)(C)C)nc23)c2nc(C(C)(C)C)ccc2c1.Cl (some centres undefined)
4

Query: IC50; subject: COc1cc(NC(C)CCCNCOC(=O)NCCCC(C)Nc2cc(OC)cc3cccnc23)c2ncccc2c1.Cl.Cl (centres undefined)
2.6

----------
# test.summary: Hematotoxicity against RBC assessed as formation of methemoglobin at 20 ug/ml relative to control
# Format: cell-based
# experimental.conditions: erythrocyte
Measured Methemoglobin formation of individual entries
Numeric only. Scale: %

COc1cc(NC(C)CCCNC(=O)c2cncc(C(=O)NCCCC(C)Nc3cc(OC)cc4cccnc34)c2)c2ncccc2c1.Cl (configuration not stated)	5.5
COc1cc(NC(C)CCCN)c2ncccc2c1 (configuration not stated)	10
COc1cc(NC(C)CCCNC(=O)N[C@@H](CCCN)C(=O)NCCCC(C)Nc2cc(OC)cc3ccc(C(C)(C)C)nc23)c2nc(C(C)(C)C)ccc2c1.Cl (some centres not stated)	0.2

Which Methemoglobin formation value belongs to COc1cc(NC(C)CCCNC(=O)C[C@H](N)C(=O)NCCCC(C)Nc2cc(OC)cc3ccc(C(C)(C)C)nc23)c2nc(C(C)(C)C)ccc2c1.Cl (some centres not stated) ?
1.55

Please give the measured Methemoglobin formation for this compound: COc1cc(NC(C)CCCNC(=O)c2cncc(C(=O)NCCCC(C)Nc3cc(OC)cc4ccc(C(C)(C)C)nc34)c2)c2nc(C(C)(C)C)ccc2c1.Cl (configuration not stated)
0.55

Consider the compound shown here: COc1cc(NC(C)CCCNC(=O)NC(=O)NCCCC(C)Nc2cc(OC)cc3cccnc23)c2ncccc2c1.Cl.Cl (configuration not stated) What is its recorded Methemoglobin formation?
2.25

Request the reported Methemoglobin formation associated with COc1cc(NC(C)CCCNC(=O)c2cccc(C(=O)NCCCC(C)Nc3cc(OC)cc4cccnc34)n2)c2ncccc2c1.Cl (configuration not stated)
5.7

----------
# System: Cryptococcus neoformans
# test.summary: Antifungal activity against Cryptococcus neoformans ATCC 90113
# Type: functional, organism-based
Let's look at some compounds and their measured MIC.
Give just the numeric value; µg/mL need not be written.

COc1cc(NC(C)CCCNC(=O)CC[C@H](N)C(=O)NCCCC(C)Nc2cc(OC)cc3cccnc23)c2ncccc2c1.Cl (stereo partly specified)	20
COc1cc(NC(C)CCCNCOC(=O)NCCCC(C)Nc2cc(OC)cc3cccnc23)c2ncccc2c1.Cl.Cl (stereo unspecified)	5
COc1cc(NC(C)CCCNC(=O)NC(CCCNC(=N)N)C(=O)NCCCC(C)Nc2cc(OC)cc3cccnc23)c2ncccc2c1.Cl (single isomer, unassigned; 36)	10
COc1cc(NC(C)CCCNC(=O)C[C@H](N)C(=O)NCCCC(C)Nc2cc(OC)cc3cccnc23)c2ncccc2c1.Cl (stereo partly specified)	10
COc1cc(NC(C)CCCNC(=O)NC(CCCCN)C(=O)NCCCC(C)Nc2cc(OC)cc3ccc(C(C)(C)C)nc23)c2nc(C(C)(C)C)ccc2c1.Cl (single isomer, unassigned)	10

Would you kindly look at the next entry?
Notebook entry, Cryptococcus neoformans assay: MIC of COc1cc(NC(C)CCCNC(=O)N[C@H](CCCCN)C(=O)NCCCC(C)Nc2cc(OC)cc3cccnc23)c2ncccc2c1.Cl (stereo partly specified) = ?
20

----------
Recorded IC50, one value per entry.
# Test system: Leishmania donovani
# test.summary: Antileishmanial activity against promastigotes of Leishmania donovani by alamar blue assay
# Format: functional, organism-based
# experimental.conditions: Leishmania donovani; read-out: IC50

The examples below pair each entry with its known result.
COc1cc(NC(C)CCCNC(=O)N[C@H](CCCCN)C(=O)NCCCC(C)Nc2cc(OC)cc3cccnc23)c2ncccc2c1.Cl (some centres not stated)	18.5 µg/mL
COc1cc(NC(C)CCCNC(=S)NCCCC(C)Nc2cc(OC)cc3ccc(C(C)(C)C)nc23)c2nc(C(C)(C)C)ccc2c1.Cl.Cl (configuration not stated)	9 µg/mL
COc1cc(NC(C)CCCNC(=O)C[C@@H](N)C(=O)NCCCC(C)Nc2cc(OC)cc3cccnc23)c2ncccc2c1.Cl (some centres not stated)	11.5 µg/mL
COc1cc(NC(C)CCCNC(=O)c2cccc(C(=O)NCCCC(C)Nc3cc(OC)cc4cccnc34)n2)c2ncccc2c1.Cl (configuration not stated)	6.5 µg/mL
COc1cc(NC(C)CCCNCC(=O)NCCCC(C)Nc2cc(OC)cc3cccnc23)c2ncccc2c1.Cl.Cl (configuration not stated)	20 µg/mL

Need IC50 of COc1cc(NC(C)CCCNCC(=O)NCCCC(C)Nc2cc(OC)cc3ccc(C(C)(C)C)nc23)c2nc(C(C)(C)C)ccc2c1.Cl.Cl (configuration not stated) , thanks.
2.9 µg/mL

Look up IC50: COc1cc(NC(C)CCCNC(=O)c2ccncc2C(=O)NCCCC(C)Nc2cc(OC)cc3ccc(C(C)(C)C)nc23)c2nc(C(C)(C)C)ccc2c1.Cl (configuration not stated)
16 µg/mL
